The measurements presented in this section are drawn from patent US20260226071A1.

Molecular target: Aurora kinase A (AURKA) (Homo sapiens, UniProt O14965)
Construct: endogenous in cells; host or cells: HeLa LgBit (AURKA-HiBit KI), CRISPR/Cas9 knock-in at the endogenous AURKA locus
Sequence (O14965 whole entry): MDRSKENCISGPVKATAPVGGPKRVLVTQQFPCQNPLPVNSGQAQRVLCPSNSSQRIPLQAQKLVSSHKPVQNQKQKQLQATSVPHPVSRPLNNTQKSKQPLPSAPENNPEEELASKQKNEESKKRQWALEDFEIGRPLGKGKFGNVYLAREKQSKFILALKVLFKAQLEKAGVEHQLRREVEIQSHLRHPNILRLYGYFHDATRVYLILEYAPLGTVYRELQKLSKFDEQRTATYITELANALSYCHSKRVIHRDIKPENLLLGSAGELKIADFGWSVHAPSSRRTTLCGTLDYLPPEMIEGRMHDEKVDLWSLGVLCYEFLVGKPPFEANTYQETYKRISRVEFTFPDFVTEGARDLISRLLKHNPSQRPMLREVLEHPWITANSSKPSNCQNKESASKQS
Assay: Luciferase assay for AURKA in HeLa LgBit (AURKA-HiBit KI) cell line
Assay type: cell-based
Conditions: 100 nM compound, HeLa LgBit (AURKA-HiBit KI) cells, measured after 12 hours

Compound | luminescence value (Level)
O=C1CCC(Nc2ccc(N3CC4CC(C3)N(CC3CCN(C(=O)c5ccc(Nc6ncc(F)c(Nc7ccc(C(=O)Nc8ccccc8Cl)cc7)n6)cc5)CC3)C4)cc2)C(=O)N1 (centres unmarked) | B (B is 0.2 to 0.4)
O=C1CC[C@H](NC(=O)c2ccc(N3CCN(CCC4CCN(NC(=O)c5ccc(Nc6ncc(F)c(Nc7ccc(C(=O)Nc8ccccc8Cl)cc7)n6)cc5)CC4)CC3)cn2)C(=O)N1 | B (B is 0.2 to 0.4)
O=C1CCC(c2ccc(N3CCN(CCN4CCC(C(=O)Nc5ccc(Nc6ncc(F)c(Nc7ccc(C(=O)Nc8ccccc8Cl)cc7)n6)cc5)CC4)CC3)cc2)C(=O)N1 (centres unmarked) | A (A is <0.2)
O=C1CCC(c2ccc(N3CCN(CC4CCN(C(=O)c5ccc(Nc6ncc(F)c(Nc7ccc(C(=O)Nc8ccccc8Cl)cc7)n6)cc5)CC4)CC3)cc2)C(=O)N1 (centres unmarked) | A (A is <0.2)
O=C1CCC(c2ccc(N3CCN(CCC4CCN(C(=O)Nc5ccc(Nc6ncc(F)c(Nc7ccc(C(=O)Nc8ccccc8Cl)cc7)n6)cc5)CC4)CC3)cc2)C(=O)N1 (centres unmarked) | A (A is <0.2)

---

Biological target: Aurora kinase A (AURKA) (Homo sapiens, UniProt O14965)
Construct: endogenous in cells; host or cells: HeLa LgBit (AURKA-HiBit KI), CRISPR/Cas9 knock-in at the endogenous AURKA locus
Assay: Luciferase assay for AURKA in HeLa LgBit (AURKA-HiBit KI) cell line
Format: cell-based
Settings: 10 nM compound, HeLa LgBit (AURKA-HiBit KI) cells, measured after 12 hours

Molecule | luminescence value (Level)
C[C@@H]1CN(CCC2CCN(NC(=O)c3ccc(Nc4ncc(F)c(Nc5ccc(C(=O)Nc6ccccc6Cl)cc5)n4)cc3)CC2)CCN1c1ccc(C2CCC(=O)NC2=O)cc1 (some centres unmarked) [Compound 116] | A (A is <0.3)
O=C1CCC(c2ccc(N3CCN(CCC4CCN(NC(=O)c5ccc(Nc6ncc(F)c(Nc7ccc(NC(=O)c8ccccc8Cl)cc7)n6)cc5)CC4)CC3)cc2)C(=O)N1 (centres unmarked) [Compound 93] | A (A is <0.3)
O=C1CCC(c2ccc(N3CCN(CCC4CCN(NC(=O)c5ccc(Nc6ncc(F)c(Oc7ccc(C(=O)Nc8ccccc8Cl)cc7)n6)cc5)CC4)CC3)cc2)C(=O)N1 (centres unmarked) [Compound 101] | B (B is 0.3 to 0.5)
CN(CC1CCN(c2ccc(C3CCC(=O)NC3=O)cc2F)CC1)[C@H]1C[C@H](NC(=O)c2ccc(Nc3ncc(F)c(Nc4ccc(C(=O)Nc5ccccc5Cl)cc4)n3)cc2)C1 (some centres unmarked) [Compound 76] | B (B is 0.3 to 0.5)

---

Target: Aurora kinase A (AURKA) (Homo sapiens)
Construct: endogenous in cells; host or cells: HeLa LgBit (AURKA-HiBit KI), CRISPR/Cas9 knock-in at the endogenous AURKA locus
Assay: Luciferase assay for AURKA in HeLa LgBit (AURKA-HiBit KI) cell line
Type: cell-based
Details: 100 nM compound, HeLa LgBit (AURKA-HiBit KI) cells, measured after 12 hours

Compound | Study Target | luminescence value (Level)
O=C1CCC(c2ccc(N3CCC(CCC(=O)N4CCC(NC(=O)c5ccc(Nc6ncc(F)c(Nc7ccc(C(=O)Nc8ccccc8Cl)cc7)n6)cc5)CC4)CC3)cc2)C(=O)N1 (centres unmarked) | Aurora kinase A (AURKA) (Homo sapiens) | A (A is <0.2)
CN(CC1CCN(c2ccc(C3CCC(=O)NC3=O)cc2F)CC1)C1CCN(NC(=O)c2ccc(Nc3ncc(F)c(Nc4ccc(C(=O)Nc5ccccc5Cl)cc4)n3)cc2)CC1 (centres unmarked) | Aurora kinase A (AURKA) (Homo sapiens) | A (A is <0.2)
CN(c1ccc(N2CCC(CN3CCN(C(=O)Cc4ccc(Nc5ncc(F)c(Nc6ccc(C(=O)Nc7ccccc7Cl)cc6)n5)cc4)CC3)CC2)cc1)C1CCC(=O)NC1=O (centres unmarked) | Aurora kinase A (AURKA) (Homo sapiens) | A (A is <0.2)
COc1cc(N2CCN(CCC3CCN(NC(=O)c4ccc(Nc5ncc(F)c(Nc6ccc(C(=O)Nc7ccccc7Cl)cc6)n5)cc4)CC3)CC2)c(F)cc1NC1CCC(=O)NC1=O (centres unmarked) | Aurora kinase A (AURKA) (Homo sapiens) | A (A is <0.2)
CN(CC1CCN(c2ccc(C3CCC(=O)NC3=O)cc2)CC1)[C@H]1CC[C@H](NC(=O)c2ccc(Nc3ncc(F)c(Nc4ccc(C(=O)Nc5ccccc5Cl)cc4)n3)cc2)CC1 (some centres unmarked) | Aurora kinase A (AURKA) (Homo sapiens) | A (A is <0.2)
CC(CN1CCN(c2ccc(C3CCC(=O)NC3=O)cc2)CC1)C1CCN(NC(=O)c2ccc(Nc3ncc(F)c(Nc4ccc(C(=O)Nc5ccccc5Cl)cc4)n3)cc2)CC1 (centres unmarked) | Aurora kinase A (AURKA) (Homo sapiens) | A (A is <0.2)
O=C1CCC(Nc2ccc(N3CCN(CCC4CCN(NC(=O)c5ccc(Nc6ncc(F)c(Nc7ccc(C(=O)Nc8ccccc8Cl)cc7)n6)cc5)CC4)CC3)c(F)c2)C(=O)N1 (centres unmarked) | Aurora kinase A (AURKA) (Homo sapiens) | A (A is <0.2)
O=C1CCC(Nc2ccc(N3CCC(CN4C[C@@H]5[C@H](C4)[C@H]5NC(=O)c4ccc(Nc5ncc(F)c(Nc6ccc(C(=O)Nc7ccccc7Cl)cc6)n5)cc4)CC3)cc2)C(=O)N1 (some centres unmarked) | Aurora kinase A (AURKA) (Homo sapiens) | A (A is <0.2)
O=C1CCC(c2ccc(N3CCN(Cc4ccc(NC(=O)c5ccc(Nc6ncc(F)c(Nc7ccc(C(=O)Nc8ccccc8Cl)cc7)n6)cc5)cc4)CC3)cc2)C(=O)N1 (centres unmarked) | Aurora kinase A (AURKA) (Homo sapiens) | B (B is 0.2 to 0.4)
CN(CC1CCN(c2ccc(C3CCC(=O)NC3=O)cc2)CC1)C1CC(NC(=O)c2ccc(Nc3ncc(F)c(Nc4ccc(C(=O)Nc5ccccc5Cl)cc4)n3)cc2)C1 (centres unmarked) | Aurora kinase A (AURKA) (Homo sapiens) | B (B is 0.2 to 0.4)
CN(CC1CCN(c2ccc(NC3CCC(=O)NC3=O)cc2F)CC1)[C@H]1CC[C@H](NC(=O)c2ccc(Nc3ncc(F)c(Nc4ccc(C(=O)Nc5ccccc5Cl)cc4)n3)cc2)CC1 (some centres unmarked) | Aurora kinase A (AURKA) (Homo sapiens) | A (A is <0.2)
